In this section, each of the compounds is paired with its reported kinase still bound, per cent of control.
Target: EPHA7 (human) (UniProt Q15375)
Sequence (Q15375 whole entry, looked up): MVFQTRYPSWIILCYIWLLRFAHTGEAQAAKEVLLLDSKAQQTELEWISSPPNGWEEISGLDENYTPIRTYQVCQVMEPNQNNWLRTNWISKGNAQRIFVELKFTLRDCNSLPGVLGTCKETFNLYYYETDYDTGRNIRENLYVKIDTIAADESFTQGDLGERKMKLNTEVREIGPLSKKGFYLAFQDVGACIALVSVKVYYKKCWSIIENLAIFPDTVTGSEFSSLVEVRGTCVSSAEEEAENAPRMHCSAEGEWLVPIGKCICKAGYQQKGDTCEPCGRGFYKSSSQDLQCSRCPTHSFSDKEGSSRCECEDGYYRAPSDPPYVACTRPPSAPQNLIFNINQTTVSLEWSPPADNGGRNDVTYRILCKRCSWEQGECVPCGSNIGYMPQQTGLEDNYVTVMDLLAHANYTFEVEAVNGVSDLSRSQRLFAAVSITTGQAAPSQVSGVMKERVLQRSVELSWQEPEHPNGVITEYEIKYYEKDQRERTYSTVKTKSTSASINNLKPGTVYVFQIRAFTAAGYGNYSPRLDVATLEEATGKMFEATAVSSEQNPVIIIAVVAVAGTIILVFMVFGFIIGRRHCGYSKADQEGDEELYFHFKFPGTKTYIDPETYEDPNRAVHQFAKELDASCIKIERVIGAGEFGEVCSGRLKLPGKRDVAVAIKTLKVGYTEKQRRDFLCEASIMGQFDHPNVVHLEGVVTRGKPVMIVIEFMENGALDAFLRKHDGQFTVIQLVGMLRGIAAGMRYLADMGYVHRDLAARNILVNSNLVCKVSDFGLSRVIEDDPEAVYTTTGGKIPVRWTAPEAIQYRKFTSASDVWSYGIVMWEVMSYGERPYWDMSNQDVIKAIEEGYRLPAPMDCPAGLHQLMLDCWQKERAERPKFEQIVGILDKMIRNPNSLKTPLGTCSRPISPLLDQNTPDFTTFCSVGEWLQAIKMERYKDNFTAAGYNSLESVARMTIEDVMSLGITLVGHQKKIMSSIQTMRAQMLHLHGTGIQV
Test: KINOMEscan competition binding
Settings: compound 10.0 µM

{"columns": ["compound", "kinase still bound, per cent of control [%]"],
 "data": [
  ["COc1ccc(N(C(=O)Oc2cc(C(=O)Nc3cccc(C(F)(F)F)c3)ccc2C)c2ccnc(Nc3ccc(N4CCN(C)CC4)cc3)n2)c(OC)c1", 0.6],
  ["CC1=C(C(=O)Nc2cc3cn[nH]c3cc2F)C(c2ccc(C(F)(F)F)cc2)CC(=O)N1 (centres undefined)", 80],
  ["O=c1[nH]c2ccccc2n1C1CCN(Cc2ccc(-c3nc4cc5[nH]cnc5cc4nc3-c3ccccc3)cc2)CC1", 100],
  ["CCc1nc(-c2cccc(C)c2)c(-c2ccnc(NC(=O)c3ccccc3)c2)s1", 92]
]}
